Source listed as the supplement of paper PMC10290057.

Entries and their efficacy values follow.
# Test system: HCT116
# assay: efficacy (fitted maximal change in viability relative to DMSO control); higher = less cytotoxic (negative = loss of viability)
# condition_set: 48 h
Provide only the numeric value, understood in %.

Recorded results for 3 compounds are shown here.
# compound, measure_name, measured_value
records = [
    ("CCCCCCCCCCCC(CC1OC(=O)C1CCCCCC)OC(=O)C(CC(C)C)NC=O (stereo not drawn)", "efficacy", -6.83),
    ("CC(O)(C#Cc1ccc2c(c1)N(c1nc(N)ncc1Cl)CC2)c1nccs1 (stereo not drawn)", "efficacy", -76.1),
    ("C[C@H](CN(C)C)Oc1nc(Nc2cc3cccc(Cl)c3cn2)cnc1C#N", "efficacy", -31.2),
]

# ---- query compound ----
Data request, read-out efficacy, for Clc1ccc(CCC(Cn2ccnc2)Sc2c(Cl)cccc2Cl)cc1 (stereo not drawn) [Butoconazole nitrate] -51.6

---

Entries and their log10 AC50 cell viability values follow.
# Test system: HCT116
# assay: AC50 cell viability (CellTiter-Glo); higher = less potent
# condition_set: 48 h
Note: values are log10 of AC50 cell viability expressed in µM.

Recorded results for 2 compounds are shown here.
# compound, measured_value
records = [
    ("Oc1ccc([C@@H]2Oc3ccc(O)cc3[C@@H]3CCC[C@@H]32)cc1", 0.87),
    ("CC1(C)CC[C@@]2(CC[C@]3(C)[C@@H]([C@@H]2C1)C(=O)\\C=C\\4[C@@]3(C)CC[C@H]5C(C)(C)C(=O)\\C(=C/[C@]45C)C#N)NC(=O)C(C)(F)F", 0.77),
]

Data request, read-out log10 AC50 cell viability, for "CCNC(=O)c1cc2c(-c3cc(OCCN4CCCC4)c(Cl)cc3Cl)nc(N)nc2s1" -0.34

---

# System: HCT116
# assay: efficacy (fitted maximal change in viability relative to DMSO control); higher = less cytotoxic (negative = loss of viability)
# condition_set: 48 h
Structures can show the parent of a compound that is named as a salt.
Entries and their efficacy values follow.
Provide only the numeric value, understood in %.

# compound, measure_name, measured_value
measured = [
    ("CC(C)OC(=O)C(C(=O)OC(C)C)=C1S\\C=C/S1 [Malotilate]", "efficacy", -26.9),
    ("COc1nc(-c2ccc3c(c2)OCO3)n(-c2ccc(NC(=O)CSc3ccccc3)cc2)n1", "efficacy", -15.5),
    ("CCN(c1ccccc1)c1cc(NC)[n+](C)c(C)n1", "efficacy", -13),
    ("Cc1nc2cnc3ccc(C#Cc4cccnc4)cc3c2n1-c1ccc(C(C)(C)C#N)cc1", "efficacy", -92.6),
    ("C[C@@]1(C(=O)Nc2ccc(F)nc2)CCCN1c1nc(Nc2cc(C3CC3)[nH]n2)c2cccn2n1", "efficacy", -59.3),
]

Data request, read-out efficacy, for CC1=CC(=CC(=C1C\C2=N\CCN2)C)C(C)(C)C [Xylometazoline hydrochloride] -32.9

Data request, read-out efficacy, for "CC(C)n1cnc2c(NCCCCCCNC(=O)OC(C)(C)C)nc(NCCO)nc21" -79.7

Data request, read-out efficacy, for "COc1ccc(-n2c(C)c([N+](=O)[O-])c3ccc(O)cc32)cc1" -14.4

Data request, read-out efficacy, for "O=C(Nc1ccc2[nH]nc(-c3ccncc3)c2c1)[C@@H]1CCN(CC(=O)N2CCN(c3ccc(-c4ncccn4)cc3)CC2)C1" -64.3

Data request, read-out efficacy, for "COc1cc2c(cc1OC)CN(CCc1ccc(NC(=O)c3cc(OC)c(OC)cc3NC(=O)c3cnc4ccccc4c3)cc1)CC2" -11.3

Data request, read-out efficacy, for "NC/1=N/C(=O)N(C[C@@H](CO)OC[P](O)(O)=O)/C=C1" 7.03

Data request, read-out efficacy, for "COc1ccc(C(=O)N2CCN(C(=O)/C=C/c3ccc(Br)cc3)CC2)cc1" -15.1

Data request, read-out efficacy, for "C=Cc1cc(O)cc2nc(-c3ccc(O)c(F)c3)oc12" -14.8

Data request, read-out efficacy, for "O=C\1N(N\C=C1[N]2C=CN=N2)C3=NC=NC(=C3)N4CCOCC4" -58.6

Data request, read-out efficacy, for ClC1=CC=C2OC3=C(\N=C(NC3=O)\[C@@H]4CCCN4)C2=C1 [XL 413 hydrochloride] -47.6

Data request, read-out efficacy, for "NC(=O)c1ncn([C@@H]2O[C@H](CO)[C@@H](O)[C@H]2O)c1O" 18

Data request, read-out efficacy, for N[C@@H](Cc1c[nH]c2ccc(O)cc12)C(=O)O [5-Hydroxytryptophan] -7.82

Data request, read-out efficacy, for Clc1ccc(COC(Cn2ccnc2)c2ccc(Cl)cc2Cl)c(Cl)c1 (stereo unspecified) [Miconazole nitrate] -97.9

Data request, read-out efficacy, for "CC(C)C[C@H](NC(=O)[C@H](CCc1ccccc1)NC(=O)CN1CCOCC1)C(=O)N[C@@H](Cc1ccccc1)C(=O)N[C@@H](CC(C)C)C(=O)[C@@]1(C)CO1" -93.6

Data request, read-out efficacy, for "COc1ccc([S+](=O)([O-])N(CCO)c2ccccc2CN(C)C/C=C/c2ccc(Cl)cc2)cc1" -93.9

Data request, read-out efficacy, for "COC(=O)N(CC(=O)O)Cc1cccc(OCc2nc(-c3ccc(Cl)cc3)oc2C)c1" -8.59

Data request, read-out efficacy, for "CNC(=O)c1ccccc1Nc1nc(Nc2ccc(N3CCOCC3)cc2OC)ncc1Cl" -77.8

---

# Test system: HCT116
# assay: AC50 cell viability (CellTiter-Glo); higher = less potent
# condition_set: 48 h
Counter-ions that a name gives are not always drawn.
measure_name: AC50 cell viability (nM)
Provide only the numeric value, understood in nM.

Recorded results for 2 molecules are shown here.
# molecule, unit_symbol, AC50 cell viability
rows = [
    ("CC[C@@]1([C@@H]2O[C@@H]([C@H]3O[C@@](O)(CO)[C@H](C)C[C@@H]3C)C[C@@H]2C)CC[C@H]([C@]2(C)CC[C@]3(C[C@H](O)[C@@H](C)[C@@H]([C@@H](C)[C@@H](OC)[C@H](C)C(=O)[O-])O3)O2)O1 [Monensin sodium salt]", "nM", 456),
    ("O=C(Nc1ccccc1Br)N[C@@H]1CCN(c2ccc(C(F)(F)F)cn2)C1", "nM", 16600),
]

# ---- query molecule ----
Data request, read-out AC50 cell viability, for "O=C(Cc1ccc(-c2ccc(OCCN3CCOCC3)cc2)cn1)NCc1ccccc1" 83.3

---

# Tested on: HCT116
# assay: efficacy (fitted maximal change in viability relative to DMSO control); higher = less cytotoxic (negative = loss of viability)
# condition_set: 48 h
Structures can show the parent of a compound that is named as a salt.
measure_name: efficacy (%)
Provide only the numeric value, understood in %.

# compound, measured_value
records = [
    ("O=C/1NC(=O)C(=C1C2=CN=C3C=CC=C[N]23)/C4=C[N]5CCN(CC6=C5C4=CC=C6)C(=O)N7CCOCC7 [GSK3 Inhibitor]", -85.7),
    ("COc1cc(C(=O)N2CC[C@@H](O)[C@@H](N)C2)cc2nc(-c3cc4ccccc4n3CC3CC3)n(C)c12 [GSK-484]", -94.1),
    ("CCOC(=O)Nc1ccc(NCc2ccc(F)cc2)nc1N [Flupirtine maleate]", 8.9),
]

Data request, read-out efficacy, for COc1cc(C(=O)NC2CCN(C)CC2)c(F)cc1Nc1ncc2c(n1)N(C1CCCC1)CC(F)(F)C(=O)N2C [TAK-960] -120

---

# System: HCT116
# assay: AC50 cell viability (CellTiter-Glo); higher = less potent
# condition_set: 48 h
Exam item: assign criterion met to entries whose AC50 cell viability is below 10 µM and criterion not met to entries at or above 10 µM. Note that a value of exactly 10 µM receives criterion not met.

Please let me know if CNCc1ccc(-c2[nH]c3cc(F)cc4c3c2CCNC4=O)cc1 [Rucaparib] shows AC50 cell viability below 10 µM. criterion not met

---

Entries and their efficacy values follow.
# System: HCT116
# assay: efficacy (fitted maximal change in viability relative to DMSO control); higher = less cytotoxic (negative = loss of viability)
# condition_set: 48 h
Provide only the numeric value, understood in %.

Recorded results for 6 compounds are shown here.
# compound, test_system, efficacy, %
measured = [
    ("CC(C)[C@@H](N(CCCN)C(=O)C1=CC=C(C)C=C1)C/2=C(\\CC3=CC=CC=C3)C(=O)C4=C(O2)C=C(Cl)C=C4", "HCT116", -34.7),
    ("C[C@@H]1COCCN1c1cc(-c2ccnn2C)c2ccnc(-c3ccn[nH]3)c2n1", "HCT116", -70.3),
    ("COc1cc2ncn(-c3cc(OCc4ccccc4[S+](C)(=O)[O-])c(C#N)s3)c2cc1OC", "HCT116", -13.8),
    ("O=C(O)CCCCC(CCSCc1ccccc1)SCc1ccccc1 (configuration not stated)", "HCT116", -19.4),
    ("COC(=O)Nc1ccc(-c2nc(N3CCOCC3)c3cnn(C4CCN(Cc5cccnc5)CC4)c3n2)cc1", "HCT116", -135),
    ("C[C@@H](NC(=O)c1ncnc(N)c1Cl)c1ncc(C(=O)Nc2cc(C(F)(F)F)c(Cl)cn2)s1", "HCT116", -95.4),
]

Data request, read-out efficacy, for "Cc1cc(Nc2cc(N3CCN(C)CC3)nc(/C=C/c3ccccc3)n2)n[nH]1" -99.9

Data request, read-out efficacy, for "COc1cc2c(cc1-c1c(C)noc1C)ncc1[nH]c(=O)n([C@H](C)c3ccccn3)c12" -77.4
